Assay: Luminescence emission spectra and quantum yield
Format: physicochemical
Conditions: room temperature; reference POPOP in hexane or rhodamine B in ethanol
ΦP emission phosphorescence quantum yield values, listed per item
Unit % implied. Number only.

These recorded examples may help you get a feel for the data.
{"MOLECULE_SMILES": "Cc1ccc2[c](c1)[Ir-3]13([c]4cc(C)ccc4-c4cccc[n+]41)([c]1n(CCCNC(=O)CCCC[C@@H]4SC[C@@H]5NC(=O)N[C@@H]54)cc[n+]1-c1cccc[n+]13)[n+]1ccccc1-2.F[P-](F)(F)(F)(F)F", "SCALE_UNIT": "%", "REPORTED_RESULT": 0.5}
{"MOLECULE_SMILES": "COC(=O)c1cccc2[c]1[Ir-3]13([c]4c(C(=O)OC)cccc4-c4cccc[n+]41)([c]1n(CCCNC(=O)c4ccccc4SC/C=C(\\C)CC/C=C(\\C)CCC=C(C)C)cc[n+]1-c1cccc[n+]13)[n+]1ccccc1-2.F[P-](F)(F)(F)(F)F", "SCALE_UNIT": "%", "REPORTED_RESULT": 0.9}
{"MOLECULE_SMILES": "F[P-](F)(F)(F)(F)F.O=C(NCCCn1cc[n+]2[c]1[Ir-3]13([c]4ccccc4-c4cccc[n+]41)([c]1ccccc1-c1cccc[n+]13)[n+]1ccccc1-2)[c-]1cccc1.[Fe+2].c1cc[cH-]c1", "SCALE_UNIT": "%", "REPORTED_RESULT": 0.04}

Reported ΦP emission phosphorescence quantum yield of CC(C)=CCC/C(C)=C/CC/C(C)=C/CSc1ccccc1C(=O)NCCCn1cc[n+]2[c]1[Ir-3]13([c]4cc(C)ccc4-c4cccc[n+]41)([c]1cc(C)ccc1-c1cccc[n+]13)[n+]1ccccc1-2.F[P-](F)(F)(F)(F)F : 0.4

* * *

System: MC3T3 osteoblast cells (non-tumor)
Assay: Cell viability assay (MTT), dark and blue light
Type: cell-based, Murine
Settings: MC3T3, dark; read-out: GI50
log10(GI50) values, listed per item
// stored as log10 of GI50 expressed in µM

{"MOLECULE_SMILES": "F[P-](F)(F)(F)(F)F.O=C(O)CC[C@H](NC(=O)N[C@@H](CCCCNC(=O)CCn1cc[n+]2[c]1[Ir-3]13([c]4cccc5ccc6ccc[n+]1c6c45)([c]1cccc4ccc5ccc[n+]3c5c14)[n+]1ccccc1-2)C(=O)O)C(=O)O", "log10(GI50)": 2.40}
{"MOLECULE_SMILES": "F[P-](F)(F)(F)(F)F.O=C(NCCCn1cc[n+]2[c]1[Ir-3]13([c]4ccccc4-c4c5ccccc5cc[n+]41)([c]1ccccc1-c1c4ccccc4cc[n+]13)[n+]1ccccc1-2)[c-]1cccc1.[Fe+2].c1cc[cH-]c1", "log10(GI50)": 1.23}
{"MOLECULE_SMILES": "F[P-](F)(F)(F)(F)F.O=C(O)CC[C@H](NC(=O)N[C@@H](CCCCNC(=O)CCn1cc[n+]2[c]1[Ir-3]13([c]4ccccc4-c4c5ccccc5cc[n+]41)([c]1ccccc1-c1c4ccccc4cc[n+]13)[n+]1ccccc1-2)C(=O)O)C(=O)O", "log10(GI50)": 1.72}
{"MOLECULE_SMILES": "F[P-](F)(F)(F)(F)F.O=C(NCCCn1cc[n+]2[c]1[Ir-3]13([c]4cccc5ccc6ccc[n+]1c6c45)([c]1cccc4ccc5ccc[n+]3c5c14)[n+]1ccccc1-2)[c-]1cccc1.[Fe+2].c1cc[cH-]c1", "log10(GI50)": 1.00}

Please examine the following record next.
Reported log10(GI50) of F[P-](F)(F)(F)(F)F.O=C(O)CC[C@H](NC(=O)N[C@@H](CCCCNC(=O)CCn1cc[n+]2[c]1[Ir-3]13([c]4ccccc4-c4sc5ccccc5[n+]41)([c]1ccccc1-c1sc4ccccc4[n+]13)[n+]1ccccc1-2)C(=O)O)C(=O)O : 1.98

* * *

Assay: Luminescence emission spectra and quantum yield
Type: physicochemical
Settings: room temperature; reference POPOP in hexane or rhodamine B in ethanol
Experimental: Fluorescence and phosphorescence emission spectra were obtained with a HORIBA JOBIN YVON, fluromax-4 and spectrofluorometer. Luminescence quantum yields were measured according to the method of Demas and Crosby, on solution samples at RT. The quantum yield is defined as: […] Where ΦP is the quantum yield of the sample, ΦR is the know quantum yield of the reference standard. […] The luminescence spectra of vectorized iridium(III) complexes were determined in CH2Cl2 at room temperature (Table 3).
ΦP emission phosphorescence quantum yield values, listed per item
Unit % implied. Number only.

These recorded examples may help you get a feel for the data.
{"MOLECULE_SMILES": "F[P-](F)(F)(F)(F)F.O=C(O)CC[C@H](NC(=O)N[C@@H](CCCCNC(=O)CCn1cc[n+]2[c]1[Ir-3]13([c]4c(sc5ccccc45)-c4cccc[n+]41)([c]1c(sc4ccccc14)-c1cccc[n+]13)[n+]1ccccc1-2)C(=O)O)C(=O)O", "REPORTED_RESULT": 3.0}
{"MOLECULE_SMILES": "F[P-](F)(F)(F)(F)F.O=C(O)c1ccc2[n+](c1)[Ir-3]13([c]4ccccc4-2)([c]2ccccc2-c2ccc(C(=O)O)c[n+]21)[c]1n(CCCNC(=O)[c-]2cccc2)cc[n+]1-c1cccc[n+]13.[Fe+2].c1cc[cH-]c1", "REPORTED_RESULT": 0.12}
{"MOLECULE_SMILES": "COC(=O)c1ccc2[c](c1)[Ir-3]13([c]4cc(C(=O)OC)ccc4-c4cccc[n+]41)([c]1n(CCCNC(=O)c4ccccc4SC/C=C(\\C)CC/C=C(\\C)CCC=C(C)C)cc[n+]1-c1cccc[n+]13)[n+]1ccccc1-2.F[P-](F)(F)(F)(F)F", "REPORTED_RESULT": 4.6}
{"MOLECULE_SMILES": "F[P-](F)(F)(F)(F)F.O=C(NCCCn1cc[n+]2[c]1[Ir-3]13([c]4ccccc4-c4sc5ccccc5[n+]41)([c]1ccccc1-c1sc4ccccc4[n+]13)[n+]1ccccc1-2)[c-]1cccc1.[Fe+2].c1cc[cH-]c1", "REPORTED_RESULT": 0.08}
{"MOLECULE_SMILES": "F[P-](F)(F)(F)(F)F.O=C(O)CC[C@H](NC(=O)N[C@@H](CCCCNC(=O)CCn1cc[n+]2[c]1[Ir-3]13([c]4ccccc4-c4sc5ccccc5[n+]41)([c]1ccccc1-c1sc4ccccc4[n+]13)[n+]1ccccc1-2)C(=O)O)C(=O)O", "REPORTED_RESULT": 6.1}

Please examine the following record next.
Reported ΦP emission phosphorescence quantum yield of COC(=O)c1ccc2[c](c1)[Ir-3]13([c]4cc(C(=O)OC)ccc4-c4cccc[n+]41)([c]1n(CCCNC(=O)[c-]4cccc4)cc[n+]1-c1cccc[n+]13)[n+]1ccccc1-2.F[P-](F)(F)(F)(F)F.[Fe+2].c1cc[cH-]c1 : 0.04

* * *

Assay: Emission lifetime measurement
Assay type: physicochemical
Procedure: Fluorescence lifetime measurements were performed by an Edinburgh FLS920 spectrofluorimeter equipped with a TCC900 card for data acquisition in time-correlated single-photon counting experiments (0.5 ns time resolution) with a D2 lamp and an LDH—P-C-405 pulsed diode laser. The estimated experimental error is 2 nm on the band maximum (5% on the lifetime, 10% on the fluorescence quantum yield). […]
τ1 emission lifetime values, listed per item
Unit ns implied. Number only.

These recorded examples may help you get a feel for the data.
{"COMPOUND": "COC(=O)c1cccc2[c]1[Ir-3]13([c]4c(C(=O)OC)cccc4-c4cccc[n+]41)([c]1n(CCCNC(=O)[c-]4cccc4)cc[n+]1-c1cccc[n+]13)[n+]1ccccc1-2.F[P-](F)(F)(F)(F)F.[Fe+2].c1cc[cH-]c1 [IV-d]", "τ1 emission lifetime / ns": 228}
{"COMPOUND": "F[P-](F)(F)(F)(F)F.O=C(CCCC[C@@H]1SC[C@@H]2NC(=O)N[C@@H]21)NCCCn1cc[n+]2[c]1[Ir-3]13([c]4ccccc4-c4c5ccccc5cc[n+]41)([c]1ccccc1-c1c4ccccc4cc[n+]13)[n+]1ccccc1-2 [I-h]", "τ1 emission lifetime / ns": 202}
{"COMPOUND": "F[P-](F)(F)(F)(F)F.O=C(O)CC[C@H](NC(=O)N[C@@H](CCCCNC(=O)CCn1cc[n+]2[c]1[Ir-3]13([c]4cccc5ccc6ccc[n+]1c6c45)([c]1cccc4ccc5ccc[n+]3c5c14)[n+]1ccccc1-2)C(=O)O)C(=O)O [III-i]", "τ1 emission lifetime / ns": 227}
{"COMPOUND": "COC(=O)c1ccc2[n+](c1)[Ir-3]13([c]4ccccc4-2)([c]2ccccc2-c2ccc(C(=O)OC)c[n+]21)[c]1n(CCCNC(=O)[c-]2cccc2)cc[n+]1-c1cccc[n+]13.F[P-](F)(F)(F)(F)F.[Fe+2].c1cc[cH-]c1 [IV-e]", "τ1 emission lifetime / ns": 200}
{"COMPOUND": "F[P-](F)(F)(F)(F)F.O=C(NCCCn1cc[n+]2[c]1[Ir-3]13([c]4cccc5ccc6ccc[n+]1c6c45)([c]1cccc4ccc5ccc[n+]3c5c14)[n+]1ccccc1-2)[c-]1cccc1.[Fe+2].c1cc[cH-]c1 [IV-i]", "τ1 emission lifetime / ns": 205}

Reported τ1 emission lifetime of F[P-](F)(F)(F)(F)F.O=C(CCCC[C@@H]1SC[C@@H]2NC(=O)N[C@@H]21)NCCCn1cc[n+]2[c]1[Ir-3]13([c]4ccccc4-c4sc5ccccc5[n+]41)([c]1ccccc1-c1sc4ccccc4[n+]13)[n+]1ccccc1-2 [I-k] : 322

Reported τ1 emission lifetime of COC(=O)c1cccc2[c]1[Ir-3]13([c]4c(C(=O)OC)cccc4-c4cccc[n+]41)([c]1n(CCCNC(=O)c4ccccc4SC/C=C(\C)CC/C=C(\C)CCC=C(C)C)cc[n+]1-c1cccc[n+]13)[n+]1ccccc1-2.F[P-](F)(F)(F)(F)F [II-d] : 201

Reported τ1 emission lifetime of COC(=O)c1cccc2[c]1[Ir-3]13([c]4c(C(=O)OC)cccc4-c4cccc[n+]41)([c]1n(CCC(=O)NCCCC[C@H](NC(=O)N[C@@H](CCC(=O)O)C(=O)O)C(=O)O)cc[n+]1-c1cccc[n+]13)[n+]1ccccc1-2.F[P-](F)(F)(F)(F)F [III-d] : 219
